Biological target: human leukocyte elastase (hLE) (Homo sapiens)
Construct: Neutrophils (1.4 billion) were isolated from whole blood obtained from a single healthy laboratory donor; from tissue; host or cells: neutrophils from whole blood of a single healthy donor
Experiment: In vitro inhibition of hLE (cleavage of MeOSuc-AAPV-NA)
Type: biochemical
Conditions: hLE Ki [μM], Table 2; substrate MeOSuc-AAPV-NA 200 μM, pH 7.4, 37 C
Where a SMILES comes first, the peptide text is derived from it.
Quantity measured: Ki (µM)

[[record]]
compound = "CC[C@H](C)[C@H](NC(=O)[C@H](CC(=O)O)NC(=O)[C@H](CCCCN)NC(=O)[C@@H]1CCCN1C(=O)[C@H](Cc1c[nH]c2ccccc12)NC(=O)[C@H](Cc1ccccc1)NC(=O)[C@@H](NC(=O)[C@H](CC(C)C)NC(=O)[C@@H](NC(=O)[C@@H](N)CCC(=O)O)[C@@H](C)CC)[C@@H](C)CC)C(=O)NCC(=O)N[C@@H](Cc1ccc(O)cc1)C(=O)N[C@@H](CO)C(=O)N[C@@H](Cc1ccccc1)C(=O)N[C@H](C(=O)O)[C@@H](C)O [Peptide 19] (H-EILIFWPKDIGYSFT-OH; N-terminus and C-terminus assumed)"
test_system = "human leukocyte elastase (hLE) (Homo sapiens)"
result_qualifier = ">"
readout_number = 200

[[record]]
compound = "CC[C@H](C)[C@H](NC(=O)[C@H](C)NC(=O)[C@H](CCCCN)NC(=O)[C@H](CO)NC(=O)[C@H](Cc1c[nH]c2ccccc12)NC(=O)[C@H](Cc1ccccc1)NC(=O)[C@@H](NC(=O)[C@H](CC(C)C)NC(=O)[C@@H](NC(=O)[C@@H](N)CCC(=O)O)[C@@H](C)CC)[C@@H](C)CC)C(=O)NCC(=O)N[C@@H](Cc1ccc(O)cc1)C(=O)N[C@@H](CO)C(=O)N[C@@H](Cc1ccccc1)C(=O)N[C@H](C(=O)O)[C@@H](C)O [Peptide 22] (H-EILIFWSKAIGYSFT-OH; N-terminus and C-terminus assumed)"
test_system = "human leukocyte elastase (hLE) (Homo sapiens)"
result_qualifier = "="
readout_number = 3

